Numbers sourced from patent US20240301071A1.

Biological target: T1, histidine-tagged human SIRPA v1 (Novoprotein) (human, UniProt P78324 31-370, limits assumed)
T1 construct: bought, soluble; also called huSIRPA; soluble huSIRPA; not shown: histidine tag
T1 sequence (P78324 31-370 limits assumed): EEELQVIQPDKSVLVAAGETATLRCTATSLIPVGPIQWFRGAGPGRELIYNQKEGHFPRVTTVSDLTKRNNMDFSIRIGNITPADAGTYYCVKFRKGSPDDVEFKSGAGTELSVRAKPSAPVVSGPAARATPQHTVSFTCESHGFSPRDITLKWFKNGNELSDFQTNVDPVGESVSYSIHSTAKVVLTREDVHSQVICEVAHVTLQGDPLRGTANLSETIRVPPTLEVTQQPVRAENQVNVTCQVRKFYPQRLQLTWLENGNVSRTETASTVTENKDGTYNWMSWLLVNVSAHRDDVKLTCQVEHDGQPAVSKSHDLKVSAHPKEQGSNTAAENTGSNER
Assay: BLI (Octet), antibody on anti-human IgG Fc sensor, His-huSIRPA in solution, single-curve 1:1 fit
Experimental: Initial characterization of affinity matured anti-SIRPA antibodies disclosed herein comprised acquiring antigen affinity measurements using bio-layer interferometry (BLI) on a Pall ForteBio Octet RED96 instrument. Immobilized anti-mouse IgG Fc or anti-human IgG Fc antibodies captured murine anti-SIRPA 3F79 antibody and humanized anti-SIRPA 3F79 antibody on biosensors, respectively. […] Affinity constants (KD) were calculated from the ratio kd/ka.
# kon annotations

# binder, unit tag, kon
data = [
    ("3F9-6 (antibody, human IgG1, V domains shown, also called mAb 3F9-6) VH: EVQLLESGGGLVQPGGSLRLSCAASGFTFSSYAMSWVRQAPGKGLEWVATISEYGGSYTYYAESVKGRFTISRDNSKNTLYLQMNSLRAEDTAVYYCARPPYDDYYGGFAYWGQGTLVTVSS VL: DIQLTQSPSSLSASVGDRVTITCRASKSVSSGGYSYMHWYQQKPGKAPKLLIYLASNLESGVPSRFSGSGSGTDFTLTISSVQPEDFATYYCQHNRELPVTFGQGTKLEIK", "M⁻¹ s⁻¹", 116000),
    ("3F9-7 (antibody, human IgG1, V domains shown, also called mAb 3F9-7) VH: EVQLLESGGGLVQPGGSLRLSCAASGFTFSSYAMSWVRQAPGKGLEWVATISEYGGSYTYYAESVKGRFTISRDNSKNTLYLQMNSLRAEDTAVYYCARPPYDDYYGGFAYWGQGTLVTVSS VL: DIQLTQSPSSLSASVGDRVTITCRASKSVSSGGYSYMHWYQQKPGKAPKLLIYLASNLESGVPSRFSGSGSGTDFTLTISSVQPEDFATYYCQHNRELPATFGQGTKLEIK", "M⁻¹ s⁻¹", 99200),
]
